Would you kindly list inhibition for each of these compounds?
MEASURED_TARGET: Serum amyloid P-component (Homo sapiens) (UniProt P02743)
Sequence (P02743 whole entry): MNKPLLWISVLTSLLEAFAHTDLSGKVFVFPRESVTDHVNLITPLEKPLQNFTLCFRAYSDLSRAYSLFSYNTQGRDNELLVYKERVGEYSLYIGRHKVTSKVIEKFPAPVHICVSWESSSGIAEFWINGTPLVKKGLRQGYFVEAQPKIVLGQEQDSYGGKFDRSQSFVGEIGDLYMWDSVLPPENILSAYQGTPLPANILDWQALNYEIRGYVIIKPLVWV
PROTOCOL_DESCRIPTION: Inhibition of calcium dependent [125I]serum amyloid P-component (unknown origin) binding to immobilized chicken erythrocyte native long chromatin at 20 uM incubated for 2 hrs by gamma counting relative to control
Number in %, nothing else.

I have this compound here, `NCCOP(=O)(O)O` , and I need its recorded inhibition. 36

Endpoint output: inhibition of `O=C(O)[C@H]1CCCN1C(=O)Cc1ccc(CC(=O)N2CCC[C@@H]2C(=O)O)cc1` . Value? 39

Tell me the measured inhibition of `O=C(O)[C@H]1CCCN1C(=O)[C@H]1CC[C@@H](C(=O)N2CCC[C@@H]2C(=O)O)CC1` , please. 67

inhibition lookup needed for `O=C(O)[C@H]1CCCN1C(=O)Cc1cc(O)c(CC(=O)N2CCC[C@@H]2C(=O)O)cc1O` , thanks. 78
